Recorded values, source paper PMC5540273.

- Tested on: LZK
- Construct: gene MAP3K13
- RECORDED CONDITIONS: concentration: 1 μM, replicates: in singlicate; n = 1;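 also: KINOMEscan kinase panel screen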
The following compounds are shown together with reported %Inh values.
Include the unit right after the number.

Nc1nc(-c2ccc3c(N)n[nH]c3c2)cc(N2CCC[C@@H](C(=O)Nc3ccccc3)C2)n1.O=C(O)C(F)(F)F.O=C(O)C(F)(F)F; 0%
CC(=O)Nc1n[nH]c2ncc(-c3ccccc3)cc12; 0%
Cc1cc(N2CCC(NS(=O)(=O)c3ccc(F)cc3)CC2)nc(Nc2cccc(C#N)c2)n1.O=C(O)C(F)(F)F; 0%

Kindly consider the entry below.
Challenge: Given `Fc1cccc(COc2ccc(Nc3ncnc4cc[nH]c34)cc2Cl)c1` , report its %Inh on LZK.
Response given: 20%

====

- Tested on: PKAC-alpha
- Construct: gene PRKACA
- RECORDED CONDITIONS: concentration: 1 μM, replicates: in singlicate; n = 1
The following compounds are shown together with reported %Inh values.

Challenge: Answer with the recorded %Inh of Clc1cccc(-c2nc(Nc3ccncc3)c3ccccc3n2)c1 [GW873004] only.
Response given: 2%

Challenge: Answer with the recorded %Inh of COc1ccc(NC(=O)Nc2ccc(C)c(-c3ccc(C(=O)Nc4ccncc4)cc3)c2)cc1 [GSK1398475] only.
Response given: 8%

Challenge: Answer with the recorded %Inh of Nc1nc(-c2cccnc2)c(-c2ccnc3ccccc23)s1 [GW684083] only.
Response given: 0%

====

The following compounds are shown together with reported %Inh values.
- System: CSK
- RECORDED CONDITIONS: concentration: 1 μM, replicates: in singlicate; n = 1
Only the number, expressed in %, is required.

Consider the following illustrative entries.
CCC(CC)(CC)n1cnc2c(N)ncnc21 [SKF-97620]; 0
CS(=O)(=O)CCNCc1nc(-c2ccc3ncnc(Nc4ccc(OCc5cccc(F)c5)c(Cl)c4)c3c2)cs1.Cl [GW583340]; 12

Kindly consider the entry below.
Challenge: Answer with the recorded %Inh of Nc1n[nH]c2nnc(-c3ccccc3)cc12 [SB-517389] only.
Response given: 0

====

The following compounds are shown together with reported %Inh values.
- Tested on: TRKB
- RECORDED CONDITIONS: concentration: 1 μM, replicates: in singlicate; n = 1
Only the number, expressed in %, is required.

Consider the following illustrative entries.
Fc1cccc(COc2ccc(Nc3ncnc4cc[nH]c34)cc2Cl)c1; 17
C[C@H]1CC[C@@H](C(=O)Nc2ccccc2)CN1c1cc(-c2ccc3c(N)n[nH]c3c2)nc(N)n1 [GSK2283293]; 0
Clc1cc(Nc2ncnc3cc[nH]c23)ccc1OCc1ccccn1; 12

Kindly consider the entry below.
Challenge: Answer with the recorded %Inh of `C[C@@H]1CCN(C(=O)CO)C[C@@H]1N(C)c1ncnc2[nH]ccc12` only.
Response given: 10

====

The following compounds are shown together with reported %Inh values.
- System: DRAK2
- Construct: gene STK17B
- RECORDED CONDITIONS: concentration: 1 μM, replicates: in singlicate; n = 1
Only the number, expressed in %, is required.

Consider the following illustrative entries.
Cc1cc(N2CCC(NS(=O)(=O)c3ccc(F)cc3)CC2)nc(Nc2cccc(C#N)c2)n1.O=C(O)C(F)(F)F [GSK1653537]; 0
Fc1ccc(Nc2nccc(-c3c(-c4ccc(Cl)cc4)nn4ncccc34)n2)cc1F [GW829058]; 0
Nc1nc(-c2ccccn2)c(-c2ccnc3ccccc23)s1 [GW548057]; 3
COC(=O)c1cccc(NC(=O)NCCNc2ccnc(Nc3ccc(F)cc3)n2)c1 [GSK1379883]; 0
COc1cc2c(Nc3cccc(NC(=O)c4ccccc4)c3)ncnc2cc1OCCCN1CCOCC1 [GSK223810]; 0
Cn1ccc2ncnc(Oc3ccc(NC(=O)Nc4cccnc4)c(Cl)c3)c21; 2

Challenge: Answer with the recorded %Inh of Cl.c1ccc(Cn2ncc3cc(Nc4ncnc5ccccc45)ccc32)cc1 [GW273749] only.
Response given: 0

Challenge: Answer with the recorded %Inh of Cc1ccc(C)c(NC(=O)NCCNc2ccnc(Nc3ccc(F)cc3)n2)c1 [GSK1379878] only.
Response given: 3

Challenge: Answer with the recorded %Inh of CNc1nccc(-c2c(-c3ccc(F)cc3)ncn2CCCN2CCOCC2)n1 [SB-222516] only.
Response given: 15
